- System: Hepatitis B virus
- PROCEDURE_DETAILS: Antiviral activity against HBV infected in human HepG2.2.15 cells assessed as reduction in extracellular HBV DNA level
- Format: functional, organism-based
ASSAY_READOUT: pIC50
# log scale: pIC50 equals minus log10 of the concentration in mol/L

Would you kindly share the measured pIC50 for "CC(=O)Nc1ccc(-c2cc(C)c(=O)n(Cc3ccc(Cl)cc3)n2)cc1" ?
5.82

###

- PROCEDURE_DETAILS: Inhibition of TrxR in human HGC-27 cells
- Format: cell-based
ASSAY_READOUT: pIC50
# log scale: pIC50 equals minus log10 of the concentration in mol/L

Would you kindly share the measured pIC50 for "COCCOCCOc1ccc(/C=C2\CCC=CC2=O)cc1OC" ?
6.82
